# target_or_test_system: Vascular endothelial growth factor receptor 2 (Homo sapiens, UniProt P35968)
# Sequence (P35968 whole entry): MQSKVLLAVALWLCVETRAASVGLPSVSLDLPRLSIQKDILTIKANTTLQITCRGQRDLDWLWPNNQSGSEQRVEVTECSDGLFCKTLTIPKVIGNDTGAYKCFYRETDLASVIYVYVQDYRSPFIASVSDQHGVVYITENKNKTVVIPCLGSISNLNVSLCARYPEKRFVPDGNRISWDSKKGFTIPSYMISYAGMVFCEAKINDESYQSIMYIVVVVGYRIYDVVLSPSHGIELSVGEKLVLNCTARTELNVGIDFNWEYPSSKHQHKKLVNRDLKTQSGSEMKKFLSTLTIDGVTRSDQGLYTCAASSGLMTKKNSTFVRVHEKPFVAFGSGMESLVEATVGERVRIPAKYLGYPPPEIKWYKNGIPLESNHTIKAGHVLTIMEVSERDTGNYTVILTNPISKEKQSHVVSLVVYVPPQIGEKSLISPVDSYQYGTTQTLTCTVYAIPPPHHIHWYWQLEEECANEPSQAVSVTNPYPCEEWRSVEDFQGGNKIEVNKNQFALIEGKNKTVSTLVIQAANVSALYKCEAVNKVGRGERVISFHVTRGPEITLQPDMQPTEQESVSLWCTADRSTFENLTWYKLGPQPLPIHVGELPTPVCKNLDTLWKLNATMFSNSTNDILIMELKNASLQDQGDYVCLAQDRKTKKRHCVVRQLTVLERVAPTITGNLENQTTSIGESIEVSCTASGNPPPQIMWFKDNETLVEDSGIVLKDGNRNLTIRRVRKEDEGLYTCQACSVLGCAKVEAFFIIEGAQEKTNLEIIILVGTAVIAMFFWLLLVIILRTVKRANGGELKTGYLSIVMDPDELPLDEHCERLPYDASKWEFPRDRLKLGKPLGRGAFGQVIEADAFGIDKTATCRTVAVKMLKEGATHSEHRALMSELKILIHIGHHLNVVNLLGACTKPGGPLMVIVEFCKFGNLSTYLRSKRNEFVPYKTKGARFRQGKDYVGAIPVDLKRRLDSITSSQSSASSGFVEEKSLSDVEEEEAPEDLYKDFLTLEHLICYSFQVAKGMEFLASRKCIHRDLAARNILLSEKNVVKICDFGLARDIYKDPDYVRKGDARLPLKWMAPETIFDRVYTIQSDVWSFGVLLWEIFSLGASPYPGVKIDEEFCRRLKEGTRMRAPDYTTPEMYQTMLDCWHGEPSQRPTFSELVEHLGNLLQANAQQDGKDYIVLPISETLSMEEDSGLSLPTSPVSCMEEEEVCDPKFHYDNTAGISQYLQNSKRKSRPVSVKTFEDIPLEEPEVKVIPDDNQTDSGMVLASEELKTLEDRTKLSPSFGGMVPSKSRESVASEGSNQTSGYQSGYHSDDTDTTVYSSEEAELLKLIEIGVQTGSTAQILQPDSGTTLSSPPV
# test_protocol: Inhibition of human VEGFR2 at 10 uM after 20 to 40 mins by liquid scintillation counting analysis in presence of […]
# Set-up: scale not given: the % may be the effect or the level left
Recorded Activity values for a group of compounds are listed next.
The response must be a number in % with no trailing unit.

# smiles_structure, measured_property, value_observed
data = [
    ("Cc1ccccc1NC(=O)Nc1ccc(Nc2ncnc3c2cnn3-c2ccc(Cl)cc2)cc1", "Activity", 3),
    ("O=c1sc2cc(Nc3ncnc4c3cnn4-c3ccccc3)ccc2n1Cc1cccc(Br)c1", "Activity", 2),
    ("O=C(Nc1ccccc1)Nc1ccc(Oc2ncnc3c2cnn3-c2ccc(Cl)cc2)cc1", "Activity", -3),
    ("O=C(Nc1ccc(Nc2ncnc3c2cnn3-c2ccccc2)cc1)Nc1ccccc1Cl", "Activity", -5),
    ("O=C(Nc1ccc(Nc2ncnc3c2cnn3-c2ccccc2)cc1)Nc1cccc(Br)c1", "Activity", -3),
]

Value of measured Activity for the entry O=c1sc2cc(Nc3ncnc4c3cnn4-c3ccccc3)ccc2n1Cc1ccc(Cl)cc1Cl : -5

Value of Activity reported for the compound Clc1ccc(-n2ncc3c(Nc4ccc(OCc5ccccc5)cc4)ncnc32)cc1 is 0

---

# target_or_test_system: Receptor-type tyrosine-protein kinase FLT3 (Homo sapiens, UniProt P36888)
# Sequence (P36888 whole entry): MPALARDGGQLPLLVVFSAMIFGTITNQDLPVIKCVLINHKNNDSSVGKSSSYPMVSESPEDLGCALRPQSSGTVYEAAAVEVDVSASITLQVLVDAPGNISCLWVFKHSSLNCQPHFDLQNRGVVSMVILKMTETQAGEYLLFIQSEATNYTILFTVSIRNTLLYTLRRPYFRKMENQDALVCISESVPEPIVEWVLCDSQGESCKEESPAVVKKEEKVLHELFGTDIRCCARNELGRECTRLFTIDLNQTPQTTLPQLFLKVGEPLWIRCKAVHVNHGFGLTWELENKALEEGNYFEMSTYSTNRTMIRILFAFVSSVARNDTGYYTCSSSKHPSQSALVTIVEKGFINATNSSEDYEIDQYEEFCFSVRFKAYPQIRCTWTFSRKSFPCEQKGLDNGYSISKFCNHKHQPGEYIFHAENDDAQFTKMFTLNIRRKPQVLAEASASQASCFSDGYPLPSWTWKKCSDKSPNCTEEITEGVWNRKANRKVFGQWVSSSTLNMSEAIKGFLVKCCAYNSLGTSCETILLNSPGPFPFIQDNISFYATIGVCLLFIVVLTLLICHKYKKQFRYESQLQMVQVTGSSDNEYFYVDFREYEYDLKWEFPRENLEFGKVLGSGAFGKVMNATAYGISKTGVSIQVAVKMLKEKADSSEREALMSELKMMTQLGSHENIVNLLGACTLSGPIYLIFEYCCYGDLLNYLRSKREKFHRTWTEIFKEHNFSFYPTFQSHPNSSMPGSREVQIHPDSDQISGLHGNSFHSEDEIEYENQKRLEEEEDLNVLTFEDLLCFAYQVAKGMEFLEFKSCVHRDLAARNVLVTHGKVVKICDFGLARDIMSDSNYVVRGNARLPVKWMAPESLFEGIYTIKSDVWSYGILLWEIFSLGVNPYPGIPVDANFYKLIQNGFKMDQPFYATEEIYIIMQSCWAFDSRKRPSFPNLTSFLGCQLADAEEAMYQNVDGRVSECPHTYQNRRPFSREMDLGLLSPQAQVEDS
measured_property: IC50
Write the numeric value and follow it with the unit.

Lab note: O=C(Nc1ccc(Oc2ncnc3[nH]ncc23)cc1)Nc1ccc(Cl)c(C(F)(F)F)c1 gave IC50 of 4 nM

---

# test_protocol: Cytotoxicity against human COLO205 cells assessed as cell growth at 10 uM after 72 hrs by SRB assay relative to control
# Format: functional
# condition_context: COLO 205, 72 h, read-out: Activity
Label fulfilled for high-side growth at 10 µM (at or above 90%) and not fulfilled for low-side growth at 10 µM (below it).

# smiles_structure, label
data = [
    ("Cc1ccc2nc(Nc3ncnc4c3cnn4-c3ccccc3)sc2c1", "fulfilled"),
    ("O=C(NC1CCCCC1)c1ccc(Nc2ncnc3c2cnn3-c2ccccc2)cc1", "not fulfilled"),
    ("O=c1sc2cc(Nc3ncnc4c3cnn4-c3ccccc3)ccc2n1Cc1ccc(Cl)cc1", "fulfilled"),
]

Now for a further molecule.
Answer whether growth at 10 µM of c1ccc(COc2ccc(Nc3ncnc4c3cnn4-c3ccccc3)cc2)cc1 is greater than or equal to 90%.
fulfilled

---

# test_protocol: Cytotoxicity against human HCT116 cells assessed as cell growth at 10 uM after 72 hrs by SRB assay relative to control
# Assay type: functional
# condition_context: HCT-116, 72 h, read-out: Activity
measured_property: growth at 10 µM
Write your answer as a measured quantity: the number, then the unit.

# smiles_structure, growth at 10 µM
data = [
    ("O=c1sc2cc(Nc3ncnc4c3cnn4-c3ccccc3)ccc2n1Cc1ccc(Cl)cc1", "80.3%"),
]

For reference, reported growth at 10 µM for Clc1ccc(-n2ncc3c(Nc4ccc(OCc5ccccc5)cc4)ncnc32)cc1 stands at 94.8%

Lab book: growth at 10 µM of Cc1ccc2nc(Nc3ncnc4c3cnn4-c3ccccc3)sc2c1 noted as 99.4%

Entry under test: O=C(NC1CCCCC1)c1ccc(Nc2ncnc3c2cnn3-c2ccccc2)cc1 . Its growth at 10 µM was 37.6%

Summary for this molecule, c1ccc(COc2ccc(Nc3ncnc4c3cnn4-c3ccccc3)cc2)cc1 : growth at 10 µM is 106%

---

growth at 10 µM overview
# System: NCI-H460
# test_protocol: Cytotoxicity against human NCI-H460 cells assessed as cell growth at 10 uM after 72 hrs by SRB assay relative to control
# Assay type: functional
# condition_context: NCI-H460, 72 h, read-out: Activity
Entry rule: numbers only, all in %.

Study these solved cases before continuing.
# smiles_structure, value_observed
records = [
    ("Clc1ccc(-n2ncc3c(Nc4ccc(OCc5ccccc5)cc4)ncnc32)cc1", 93.1),
    ("Cc1ccc2nc(Nc3ncnc4c3cnn4-c3ccccc3)sc2c1", 98.4),
    ("O=c1sc2cc(Nc3ncnc4c3cnn4-c3ccccc3)ccc2n1Cc1ccc(Cl)cc1", 83.5),
    ("c1ccc(COc2ccc(Nc3ncnc4c3cnn4-c3ccccc3)cc2)cc1", 93.7),
]

Below: the item to evaluate.
GET /value?item= O=C(NC1CCCCC1)c1ccc(Nc2ncnc3c2cnn3-c2ccccc2)cc1 &field=growth at 10 µM returns 42.2

---

# target_or_test_system: Vascular endothelial growth factor receptor 2 (Homo sapiens, UniProt P35968)
# test_protocol: Inhibition of VEGFR2 (unknown origin) autophosphorylation after 2 hrs by cell-based assay
measured_property: pEC50
In simple prose, pEC50 is minus the logarithm base ten of a concentration in moles per litre.

Vascular endothelial growth factor receptor 2 (Homo sapiens, UniProt P35968) pEC50 of Cc1ccc(C(=O)Nc2cccc(C(F)(F)F)c2)cc1Nc1nc(-c2cccnc2)nc2c1cnn2C is 5.38

---

Quick list: growth at 10 µM per entry.
# test_protocol: Cytotoxicity against human PC3 cells assessed as cell growth at 10 uM after 72 hrs by SRB assay relative to control
# Format: functional
# condition_context: PC-3, 72 h, read-out: Activity
Give just the numeric value; % need not be written.

# smiles_structure, value_units, growth at 10 µM
records = [
    ("Clc1ccc(-n2ncc3c(Nc4ccc(OCc5ccccc5)cc4)ncnc32)cc1", "%", 86.1),
]

Please examine the following record next.
# growth at 10 µM of Cc1ccc2nc(Nc3ncnc4c3cnn4-c3ccccc3)sc2c1 = 98.3

---

Entries and their measured growth at 10 µM follow.
# test_protocol: Cytotoxicity against human BT549 cells assessed as cell growth at 10 uM after 72 hrs by SRB assay relative to control
# Assay type: functional
# condition_context: BT-549, 72 h, read-out: Activity
Units required after the number.

Examples from the recorded data:
# smiles_structure, growth at 10 µM
data = [
    ("Clc1ccc(-n2ncc3c(Nc4ccc(OCc5ccccc5)cc4)ncnc32)cc1", "107%"),
    ("Cc1ccc2nc(Nc3ncnc4c3cnn4-c3ccccc3)sc2c1", "108%"),
    ("c1ccc(COc2ccc(Nc3ncnc4c3cnn4-c3ccccc3)cc2)cc1", "106%"),
    ("O=c1sc2cc(Nc3ncnc4c3cnn4-c3ccccc3)ccc2n1Cc1ccc(Cl)cc1", "101%"),
]

In the following, a different compound is considered.
Measured growth at 10 µM, O=C(NC1CCCCC1)c1ccc(Nc2ncnc3c2cnn3-c2ccccc2)cc1 : 59.8%

---

# test_protocol: Cytotoxicity against human Caki1 cells assessed as cell growth at 10 uM after 72 hrs by SRB assay relative to control
# Assay type: functional
# condition_context: CAKI-1, 72 h, read-out: Activity
This listing pairs molecules with measured growth at 10 µM.
Quick note: give the figure in %, leave out the unit.

The value of growth at 10 µM measured for the molecule Clc1ccc(-n2ncc3c(Nc4ccc(OCc5ccccc5)cc4)ncnc32)cc1 turned out to be 93.7

Measured growth at 10 µM of O=c1sc2cc(Nc3ncnc4c3cnn4-c3ccccc3)ccc2n1Cc1ccc(Cl)cc1 : 71.6

response.value for O=C(NC1CCCCC1)c1ccc(Nc2ncnc3c2cnn3-c2ccccc2)cc1 (field: growth at 10 µM) = 62.3

Lab book: growth at 10 µM of Cc1ccc2nc(Nc3ncnc4c3cnn4-c3ccccc3)sc2c1 noted as 103

Record summary for c1ccc(COc2ccc(Nc3ncnc4c3cnn4-c3ccccc3)cc2)cc1 : reported growth at 10 µM = 99.1

---

# Test system: HT-29
# test_protocol: Cytotoxicity against human HT-29 cells assessed as cell growth at 10 uM after 72 hrs by SRB assay relative to control
# Type: functional
# condition_context: HT-29, 72 h, read-out: Activity
measured_property: growth at 10 µM (%)
Record the value in %, omitting the unit from your answer.

Record excerpt, results attached:
# smiles_structure, target_or_test_system, value_observed
rows = [
    ("O=C(NC1CCCCC1)c1ccc(Nc2ncnc3c2cnn3-c2ccccc2)cc1", "HT-29", 70.2),
    ("c1ccc(COc2ccc(Nc3ncnc4c3cnn4-c3ccccc3)cc2)cc1", "HT-29", 116),
    ("Clc1ccc(-n2ncc3c(Nc4ccc(OCc5ccccc5)cc4)ncnc32)cc1", "HT-29", 84.7),
    ("O=c1sc2cc(Nc3ncnc4c3cnn4-c3ccccc3)ccc2n1Cc1ccc(Cl)cc1", "HT-29", 106),
]

Short answer on HT-29 for Cc1ccc2nc(Nc3ncnc4c3cnn4-c3ccccc3)sc2c1 , growth at 10 µM: 103

---

# target_or_test_system: Vascular endothelial growth factor receptor 2 (Homo sapiens, UniProt P35968)
# test_protocol: Inhibition of VEGFR2 (unknown origin) using poly(Glu,Ala,Tyr) (6:3:1) as substrate after 20 mins by ELISA
pIC50: −log10 of the molar value.
measured_property: pIC50

Measured on Vascular endothelial growth factor receptor 2 (Homo sapiens, UniProt P35968), Cc1cc(F)c(Nc2ncnc3cc(OCc4ccccc4)ccc23)cc1O has a documented pIC50 of > 8.70

Hey, just so you know, these numbers are from ChEMBL document CHEMBL3751764.
